Target: Protein RecA (Mycobacterium tuberculosis, UniProt P9WHJ3)
Sequence (P9WHJ3 whole entry): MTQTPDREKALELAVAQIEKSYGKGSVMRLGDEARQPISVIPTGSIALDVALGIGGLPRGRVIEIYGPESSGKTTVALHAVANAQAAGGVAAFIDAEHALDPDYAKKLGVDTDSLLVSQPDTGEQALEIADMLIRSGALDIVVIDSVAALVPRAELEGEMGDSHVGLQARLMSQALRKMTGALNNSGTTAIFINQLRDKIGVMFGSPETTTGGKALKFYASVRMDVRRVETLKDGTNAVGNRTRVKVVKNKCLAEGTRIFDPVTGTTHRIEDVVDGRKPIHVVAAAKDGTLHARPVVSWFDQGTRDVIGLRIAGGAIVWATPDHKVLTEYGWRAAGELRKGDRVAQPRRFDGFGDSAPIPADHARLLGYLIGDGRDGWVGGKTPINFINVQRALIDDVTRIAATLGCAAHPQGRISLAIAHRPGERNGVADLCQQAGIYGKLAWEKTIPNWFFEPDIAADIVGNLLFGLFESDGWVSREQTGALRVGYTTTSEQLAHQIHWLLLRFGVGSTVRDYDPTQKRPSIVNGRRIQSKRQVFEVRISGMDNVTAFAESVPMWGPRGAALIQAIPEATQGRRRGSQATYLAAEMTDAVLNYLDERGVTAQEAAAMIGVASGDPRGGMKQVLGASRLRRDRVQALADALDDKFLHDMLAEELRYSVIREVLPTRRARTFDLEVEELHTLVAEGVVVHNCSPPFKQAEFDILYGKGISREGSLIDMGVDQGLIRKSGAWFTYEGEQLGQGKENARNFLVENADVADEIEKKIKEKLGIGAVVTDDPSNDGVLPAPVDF
Assay: Fluorescence Cell-Free Homogeneous Dose Retest to Identify Inhibitors of RecA-Intein Splicing Activity. [Related pubchem assays (depositor defined):AID2097, AID2223, AID489010, AID492950]
Assay type: functional
Active and inactive are the calls of the source. No stated cut-off is given here; in the data, actives have a measured EC50 and inactives only a lower limit.
Outcome codes: YES (active), NO (inactive)

{"columns": ["molecule", "group"],
 "data": [
  ["Cc1nn(-c2ccccc2)c2c1C(c1ccco1)C(C#N)=C(N)O2 (stereo unspecified)", "YES"],
  ["COc1cccc(N/C([S-])=C(/C(=O)c2ccc(OC(F)F)cc2)[n+]2ccccc2)c1", "YES"],
  ["C/C(CC(=O)Nc1cccnc1)=N\\NC(=O)c1ccc([N+](=O)[O-])c(Cl)c1", "YES"],
  ["Brc1ccc(Cn2c(-c3ccc(Br)o3)nc3ccccc32)o1", "YES"],
  ["COc1cccc(/C=C2\\SC(=S)N(CCCC(=O)N(CCO)c3ccccc3)C2=O)c1", "YES"],
  ["COc1ccc(C(=O)C2C(c3ccc(-c4ccccc4[N+](=O)[O-])o3)NC(=O)NC2(O)C(F)(F)F)cc1 (stereo unspecified)", "YES"],
  ["Cc1ccc(NC(=O)c2cnc(SCC(=O)NCC3CCCO3)n(C)c2=O)cc1 (stereo unspecified)", "YES"],
  ["CC(C)Oc1cccc(C(=O)C2CCCN(C(=O)c3csnn3)C2)c1 (stereo unspecified)", "NO"],
  ["CC1=CC2(O)OCCN(CCO)C2=CC1=O (stereo unspecified)", "YES"],
  ["CCOC(=O)CSCC(=O)N1N=C(c2cccs2)CC1c1ccc(F)cc1 (stereo unspecified)", "YES"],
  ["Cc1ccc(-n2nc(C)c3c2OC(N)=C(C#N)C3c2ccc(F)cc2)cc1 (stereo unspecified)", "YES"]
]}
